I'd be grateful if you could share measured Ratio for these entries.
experiment: KPCB/ K352 ratio of the compound
Output: the number by itself.

Sample `Clc1cc(-c2cc(Cl)c(Cl)c(Cl)c2)cc(Cl)c1Cl` — what was its Ratio? 27.7

Next up: `Oc1c(Cl)cc(Cl)cc1-c1ccccc1` 1

Queued: `Oc1ccc(-c2c(Cl)cc(Cl)cc2Cl)cc1` 2.91

# iterate: `O=C1C(Cl)=CC(=C2C=C(Cl)C(=O)C(Cl)=C2)C=C1Cl` 2.92

Same thing, different molecule: `Oc1ccc(-c2cc(Cl)c(Cl)c(Cl)c2Cl)cc1` 24.3

Now this one: `Oc1c(Cl)cc(-c2ccc(Cl)cc2)cc1Cl` 27.5

Repeat for the following molecule: `Oc1c(Cl)cc(-c2ccccc2)cc1Cl` 45

How about this molecule: `Oc1c(Cl)cc(-c2cc(Cl)c(O)c(Cl)c2)cc1Cl` 45.5

Next entry: `Oc1c(I)cc(I)cc1I` 33.8
